The measured values listed here are drawn from ChEMBL document CHEMBL1153966.

Experiment: Toxicity in sheep erythrocytes assessed as induction of hemolysis
Assay type: cell-based, Ovis aries, Erythrocyte
Settings: read-out: HD50 (the source's name)
Measured metric: HC50 (µM)
Hi! Could you send only the number? It should be in µM, unit omitted.

Prompt: Give a short answer stating reported HC50 for `C[C@@H]1O[C@@H](O[C@H]2[C@H](O[C@H]3CC[C@]4(C)[C@H]5CC[C@@H]6[C@H]7[C@H]8OC(=O)[C@@]7(CCC8(C)C)CC[C@@]6(C)[C@]5(C)CC[C@H]4C3(C)C)O[C@H](CO)[C@@H](O[C@@H]3O[C@@H](C)[C@H](O)[C@@H](O)[C@H]3O)[C@@H]2O)[C@H](O)[C@H](O)[C@H]1O` .
Completion: 8

* * *

Assignment: determine reported pIC50 for the given compounds.
Test system: A549
Assay: Cytotoxicity against human A549 cells by resazurin reduction test
Assay type: functional, cell-based
pIC50: −log10 of the molar value.

Prompt: Give a short answer stating reported pIC50 for `C=C(C)[C@@H]1CC[C@]2(C)CC[C@]3(C)[C@H](CC[C@@H]4[C@@]5(C)CC[C@H](O[C@@H]6O[C@H](CO)[C@@H](O[C@@H]7O[C@@H](C)[C@H](O)[C@@H](O)[C@H]7O)[C@H](O)[C@H]6O[C@@H]6O[C@@H](C)[C@H](O)[C@@H](O)[C@H]6O)C(C)(C)[C@@H]5CC[C@]43C)[C@@H]12` .
Completion: < 4.30

Prompt: Give a short answer stating reported pIC50 for `C[C@@H]1O[C@@H](O[C@H]2[C@H](O[C@H]3CC[C@]4(C)[C@H]5CC[C@@H]6[C@H]7[C@H]8OC[C@@]7(CCC8(C)C)CC[C@@]6(C)[C@]5(C)CC[C@H]4C3(C)C)O[C@H](CO)[C@@H](O[C@@H]3O[C@@H](C)[C@H](O)[C@@H](O)[C@H]3O)[C@@H]2O)[C@H](O)[C@H](O)[C@H]1O` .
Completion: 4.85

Prompt: Give a short answer stating reported pIC50 for `C=C(C)[C@@H]1CC[C@]2(CO)CC[C@]3(C)[C@H](CC[C@@H]4[C@@]5(C)CC[C@H](O[C@@H]6O[C@H](CO)[C@@H](O[C@@H]7O[C@@H](C)[C@H](O)[C@@H](O)[C@H]7O)[C@H](O)[C@H]6O[C@@H]6O[C@@H](C)[C@H](O)[C@@H](O)[C@H]6O)C(C)(C)[C@@H]5CC[C@]43C)[C@@H]12` .
Completion: < 4.30

Prompt: Give a short answer stating reported pIC50 for `C=C(C)[C@@H]1CC[C@]2(C(=O)O)CC[C@]3(C)[C@H](CC[C@@H]4[C@@]5(C)CC[C@H](O[C@@H]6O[C@H](CO)[C@@H](O[C@@H]7O[C@@H](C)[C@H](O)[C@@H](O)[C@H]7O)[C@H](O)[C@H]6O[C@@H]6O[C@@H](C)[C@H](O)[C@@H](O)[C@H]6O)C(C)(C)[C@@H]5CC[C@]43C)[C@@H]12` .
Completion: < 4.30

Prompt: Give a short answer stating reported pIC50 for CC1(C)CC[C@]23CC[C@]4(C)[C@H](CC[C@@H]5[C@@]6(C)CC[C@H](O)C(C)(C)[C@@H]6CC[C@]54C)[C@H]2[C@H]1OC3 [ALLOBETULIN] .
Completion: < 4.30

Prompt: Give a short answer stating reported pIC50 for C=C(C)[C@@H]1CC[C@]2(C)CC[C@]3(C)[C@H](CC[C@@H]4[C@@]5(C)CC[C@H](O)C(C)(C)[C@@H]5CC[C@]43C)[C@@H]12 [LUPEOL] .
Completion: < 4.30

Prompt: Give a short answer stating reported pIC50 for `C[C@@H]1O[C@@H](O[C@H]2[C@H](O[C@H]3CC[C@]4(C)[C@H]5CC[C@@H]6[C@H]7[C@H]8OC(=O)[C@@]7(CCC8(C)C)CC[C@@]6(C)[C@]5(C)CC[C@H]4C3(C)C)O[C@H](CO)[C@@H](O[C@@H]3O[C@@H](C)[C@H](O)[C@@H](O)[C@H]3O)[C@@H]2O)[C@H](O)[C@H](O)[C@H]1O` .
Completion: 4.89

Prompt: Give a short answer stating reported pIC50 for `CC1(C)CC[C@]23CC[C@]4(C)[C@H](CC[C@@H]5[C@@]6(C)CC[C@H](O)C(C)(C)[C@@H]6CC[C@]54C)[C@H]2[C@H]1OC3=O` .
Completion: < 4.30

* * *

System: DLD-1
Test: Cytotoxicity against human DLD1 cells by resazurin reduction test
Format: functional, cell-based
Measured metric: IC50

Prompt: Give a short answer stating reported IC50 for CC1(C)CC[C@]23CC[C@]4(C)[C@H](CC[C@@H]5[C@@]6(C)CC[C@H](O)C(C)(C)[C@@H]6CC[C@]54C)[C@H]2[C@H]1OC3 [ALLOBETULIN] .
Completion: > 50 µM

Prompt: Give a short answer stating reported IC50 for C=C(C)[C@@H]1CC[C@]2(C)CC[C@]3(C)[C@H](CC[C@@H]4[C@@]5(C)CC[C@H](O)C(C)(C)[C@@H]5CC[C@]43C)[C@@H]12 [LUPEOL] .
Completion: > 50 µM

Prompt: Give a short answer stating reported IC50 for `C=C(C)[C@@H]1CC[C@]2(CO)CC[C@]3(C)[C@H](CC[C@@H]4[C@@]5(C)CC[C@H](O[C@@H]6O[C@H](CO)[C@@H](O[C@@H]7O[C@@H](C)[C@H](O)[C@@H](O)[C@H]7O)[C@H](O)[C@H]6O[C@@H]6O[C@@H](C)[C@H](O)[C@@H](O)[C@H]6O)C(C)(C)[C@@H]5CC[C@]43C)[C@@H]12` .
Completion: > 50 µM

Prompt: Give a short answer stating reported IC50 for `C=C(C)[C@@H]1CC[C@]2(C)CC[C@]3(C)[C@H](CC[C@@H]4[C@@]5(C)CC[C@H](O[C@@H]6O[C@H](CO)[C@@H](O[C@@H]7O[C@@H](C)[C@H](O)[C@@H](O)[C@H]7O)[C@H](O)[C@H]6O[C@@H]6O[C@@H](C)[C@H](O)[C@@H](O)[C@H]6O)C(C)(C)[C@@H]5CC[C@]43C)[C@@H]12` .
Completion: > 50 µM

Prompt: Give a short answer stating reported IC50 for `C=C(C)[C@@H]1CC[C@]2(C(=O)O)CC[C@]3(C)[C@H](CC[C@@H]4[C@@]5(C)CC[C@H](O[C@@H]6O[C@H](CO)[C@@H](O[C@@H]7O[C@@H](C)[C@H](O)[C@@H](O)[C@H]7O)[C@H](O)[C@H]6O[C@@H]6O[C@@H](C)[C@H](O)[C@@H](O)[C@H]6O)C(C)(C)[C@@H]5CC[C@]43C)[C@@H]12` .
Completion: > 50 µM

Prompt: Give a short answer stating reported IC50 for `C[C@@H]1O[C@@H](O[C@H]2[C@H](O[C@H]3CC[C@]4(C)[C@H]5CC[C@@H]6[C@H]7[C@H]8OC(=O)[C@@]7(CCC8(C)C)CC[C@@]6(C)[C@]5(C)CC[C@H]4C3(C)C)O[C@H](CO)[C@@H](O[C@@H]3O[C@@H](C)[C@H](O)[C@@H](O)[C@H]3O)[C@@H]2O)[C@H](O)[C@H](O)[C@H]1O` .
Completion: 14 µM

Prompt: Give a short answer stating reported IC50 for `C[C@@H]1O[C@@H](O[C@H]2[C@H](O[C@H]3CC[C@]4(C)[C@H]5CC[C@@H]6[C@H]7[C@H]8OC[C@@]7(CCC8(C)C)CC[C@@]6(C)[C@]5(C)CC[C@H]4C3(C)C)O[C@H](CO)[C@@H](O[C@@H]3O[C@@H](C)[C@H](O)[C@@H](O)[C@H]3O)[C@@H]2O)[C@H](O)[C@H](O)[C@H]1O` .
Completion: 13 µM

Prompt: Give a short answer stating reported IC50 for `CC1(C)CC[C@]23CC[C@]4(C)[C@H](CC[C@@H]5[C@@]6(C)CC[C@H](O)C(C)(C)[C@@H]6CC[C@]54C)[C@H]2[C@H]1OC3=O` .
Completion: > 50 µM

* * *

Experiment: Toxicity in sheep erythrocytes assessed as induction of hemolysis
Format: cell-based, Ovis aries, Erythrocyte
Conditions: read-out: HD50 (the source's name)
Measured metric: HC50

Prompt: Give a short answer stating reported HC50 for `C=C(C)[C@@H]1CC[C@]2(C(=O)O)CC[C@]3(C)[C@H](CC[C@@H]4[C@@]5(C)CC[C@H](O)C(C)(C)[C@@H]5CC[C@]43C)[C@@H]12` .
Completion: > 100 µM

Prompt: Give a short answer stating reported HC50 for `CC1(C)CC[C@]23CC[C@]4(C)[C@H](CC[C@@H]5[C@@]6(C)CC[C@H](O)C(C)(C)[C@@H]6CC[C@]54C)[C@H]2[C@H]1OC3=O` .
Completion: > 100 µM

Prompt: Give a short answer stating reported HC50 for `C=C(C)[C@@H]1CC[C@]2(C)CC[C@]3(C)[C@H](CC[C@@H]4[C@@]5(C)CC[C@H](O[C@@H]6O[C@H](CO)[C@@H](O[C@@H]7O[C@@H](C)[C@H](O)[C@@H](O)[C@H]7O)[C@H](O)[C@H]6O[C@@H]6O[C@@H](C)[C@H](O)[C@@H](O)[C@H]6O)C(C)(C)[C@@H]5CC[C@]43C)[C@@H]12` .
Completion: 30 µM

Prompt: Give a short answer stating reported HC50 for `CC1(C)CC[C@]23CC[C@]4(C)[C@H](CC[C@@H]5[C@@]6(C)CC[C@H](O)C(C)(C)[C@@H]6CC[C@]54C)[C@H]2[C@H]1OC3` .
Completion: > 100 µM

Prompt: Give a short answer stating reported HC50 for `C=C(C)[C@@H]1CC[C@]2(C)CC[C@]3(C)[C@H](CC[C@@H]4[C@@]5(C)CC[C@H](O)C(C)(C)[C@@H]5CC[C@]43C)[C@@H]12` .
Completion: > 100 µM

Prompt: Give a short answer stating reported HC50 for `C=C(C)[C@@H]1CC[C@]2(CO)CC[C@]3(C)[C@H](CC[C@@H]4[C@@]5(C)CC[C@H](O[C@@H]6O[C@H](CO)[C@@H](O[C@@H]7O[C@@H](C)[C@H](O)[C@@H](O)[C@H]7O)[C@H](O)[C@H]6O[C@@H]6O[C@@H](C)[C@H](O)[C@@H](O)[C@H]6O)C(C)(C)[C@@H]5CC[C@]43C)[C@@H]12` .
Completion: > 100 µM

Prompt: Give a short answer stating reported HC50 for `C[C@@H]1O[C@@H](O[C@H]2[C@H](O[C@H]3CC[C@]4(C)[C@H]5CC[C@@H]6[C@H]7[C@H]8OC[C@@]7(CCC8(C)C)CC[C@@]6(C)[C@]5(C)CC[C@H]4C3(C)C)O[C@H](CO)[C@@H](O[C@@H]3O[C@@H](C)[C@H](O)[C@@H](O)[C@H]3O)[C@@H]2O)[C@H](O)[C@H](O)[C@H]1O` .
Completion: 90 µM

Prompt: Give a short answer stating reported HC50 for `C=C(C)[C@@H]1CC[C@]2(C(=O)O)CC[C@]3(C)[C@H](CC[C@@H]4[C@@]5(C)CC[C@H](O[C@@H]6O[C@H](CO)[C@@H](O[C@@H]7O[C@@H](C)[C@H](O)[C@@H](O)[C@H]7O)[C@H](O)[C@H]6O[C@@H]6O[C@@H](C)[C@H](O)[C@@H](O)[C@H]6O)C(C)(C)[C@@H]5CC[C@]43C)[C@@H]12` .
Completion: > 100 µM
